System: naïve CD4+ and CD8+ T cells co-cultured with nTreg cells
Experiment: SA-β-gal staining, T cell senescence induced by Treg cells
Format: cell-based, human
Conditions: naïve CD4+ and CD8+ T cells pretreated with inhibitor 24 hours, co-cultured with nTreg 4:1, anti-CD3, 3 days
measured-property: senescent (SA-β-gal+) T cell populations induced by Treg cells

O=c1cc(-c2cccc3c2Sc2ccccc2S3)oc(N2CCOCC2)c1 [KU55933]	dramatically reduced
CC(C)c1cc(C(C)C)c(CC(=O)NS(=O)(=O)Oc2c(C(C)C)cccc2C(C)C)c(C(C)C)c1 [avasimible]	dramatically reduced
